- Test system: U2OS
- assay_notes: Multiplex assay against U2OS
- Format: toxicity, cell-based
- setup_conditions: human, 48 h, 1 µM, compound concentration 1 uM, replicate 1
parameter: Population Pyknosed Nuclei (%)
Write the answer as a number in %, unit excluded.

input: State its Population Pyknosed Nuclei (%): Cc1ccc(-c2ccc(F)cc2COc2ccc(CCC(=O)O)cc2)cc1
output: 8

input: Return the recorded Population Pyknosed Nuclei (%) value; entry: CCNC1(C(N)=O)CCN(c2ncnc3c2nc(-c2ccccc2Cl)n3-c2ccc(Cl)cc2)CC1
output: 10

input: In one line, give reported Population Pyknosed Nuclei (%) of the entry CCCC(CCC)C(=O)O .
output: 9

input: Give the value of Population Pyknosed Nuclei (%) reported for the following: CSc1ccccc1N1CCN(CCCCCC(=O)NC2CCCc3ccccc32)CC1.Cl (centres undefined)
output: 21

input: Name the recorded Population Pyknosed Nuclei (%) of the item Cc1ccc(/C(=C\CN2CCCC2)c2ccccn2)cc1 in your answer.
output: 9

input: Using known records, supply Population Pyknosed Nuclei (%) for Cc1ccc(C(C)(O)c2nc3ccccc3s2)c(C)c1 (centres undefined)
output: 9

input: Consider the compound O=C(NCC(=O)N1CC[C@H](N[C@H]2CC[C@@](O)(c3ccc(-c4ncccn4)cn3)CC2)C1)c1cccc(C(F)(F)F)c1 . State its measured Population Pyknosed Nuclei (%).
output: 11

input: Look up and report measured Population Pyknosed Nuclei (%) for this entry: CN(C)c1ccnc2sc3c(=O)n(N4CCCCCC4)cnc3c12
output: 8

input: Answer with reported Population Pyknosed Nuclei (%) of COc1cc(C(=O)N(CCCc2ccccc2)Cc2ccc(CC(=O)O)cc2)cc(OC)c1C
output: 7

input: Report Population Pyknosed Nuclei (%) for CN1CCN(c2nc3cc(C(F)(F)F)ccc3n3cccc23)CC1.O=C(O)/C=C\C(=O)O.O=C(O)/C=C\C(=O)O
output: 7

input: Return reported Population Pyknosed Nuclei (%). Input compound: O=C(O)c1cc2ccccc2c(Cc2c(O)c(C(=O)O)cc3ccccc23)c1O
output: 9

input: Retrieve Population Pyknosed Nuclei (%) measured for N#Cc1c(N)nc(SCc2csc(-c3ccc(Cl)cc3)n2)c(C#N)c1-c1ccc(OCCO)cc1 and print it.
output: 8

input: Look up Population Pyknosed Nuclei (%) of CC1(COc2ccc3c(c2)ncn3-c2ccc3cccc(N4CCC(N)CC4)c3n2)COC1 and report it.
output: 14

input: Give reported Population Pyknosed Nuclei (%) value for Cl.Clc1ccc2nsnc2c1NC1=NCCN1 [TIZANIDINE HYDROCHLORIDE]
output: 7

----------
- Test system: Fibroblast
- assay_notes: Multiplex assay against human fibroblast
- Type: toxicity, cell-based
- setup_conditions: 12 h, 10 µM, compound concentration 10 uM, replicate 2
Population Healthy Nuclei (%) less than 50% is YES; Population Healthy Nuclei (%) greater than or equal to 50% is NO.

input: Is Population Healthy Nuclei (%) of O=C(O)Cc1ccccc1Nc1c(Cl)cccc1Cl strictly below 50%?
output: YES

input: Threshold test, Population Healthy Nuclei (%) < 50%: O=C(NCC(=O)N1CC[C@H](N[C@H]2CC[C@@](O)(c3ccc(-c4ncccn4)cn3)CC2)C1)c1cccc(C(F)(F)F)c1
output: NO

input: For CN1CCN(c2nc3cc(C(F)(F)F)ccc3n3cccc23)CC1.O=C(O)/C=C\C(=O)O.O=C(O)/C=C\C(=O)O , is the recorded Population Healthy Nuclei (%) below the cut-off of 50%?
output: YES

input: Lab note: confirm whether the reported Population Healthy Nuclei (%) for this molecule is below 50%, equality not counting. molecule: CNC[C@H](O)c1ccc(O)c(O)c1 [EPINEPHRINE]
output: YES

input: Hello, is Population Healthy Nuclei (%) of the following molecule strictly smaller than 50%? CC(=O)NCCc1c(Cc2ccccc2)[nH]c2ccccc12
output: NO

input: # TODO verify Population Healthy Nuclei (%) < 50% strictly for this molecule: C[C@H](NC(=O)c1c(C(F)F)nn(C)c1Oc1cccc(C(F)(F)F)c1)c1ccc(C(=O)O)cc1
output: YES

----------
- System: U2OS
- assay_notes: Multiplex assay against U2OS
- Format: toxicity, cell-based
- setup_conditions: human, 48 h, 1 µM, compound concentration 1 uM, replicate 1
Assign criterion met to entries whose Total Cell Count meets or exceeds 400; assign criterion not met to the rest.

input: Exam item: decide whether the reported Total Cell Count for Cl.Clc1ccc2nsnc2c1NC1=NCCN1 [TIZANIDINE HYDROCHLORIDE] is at least 400.
output: criterion met

input: Has CCNC1(C(N)=O)CCN(c2ncnc3c2nc(-c2ccccc2Cl)n3-c2ccc(Cl)cc2)CC1 a recorded Total Cell Count greater than or equal to 400?
output: criterion met

input: Hi, just wondering whether O=C(NCCO)c1cccc(-c2cc(Nc3ccc(OC(F)(F)F)cc3)ncn2)c1 shows Total Cell Count of 400 or higher.
output: criterion met

input: Record CN(C)CCCc1cc(C(=O)Nc2ccc(-c3ccncc3)cc2)ccc1O.Cl.Cl ; criterion: Total Cell Count no lower than 400. Met?
output: criterion not met

input: Record C[C@H]1[C@H]2CC[C@H]3[C@@H]4CC=C5C[C@@H](N(C)C)CC[C@]5(C)[C@H]4CC[C@]23CN1C ; criterion: Total Cell Count no lower than 400. Met?
output: criterion met

input: Hi, just wondering whether COc1cc(NC(=O)CCN2CCC(OC(=O)Nc3ccccc3-c3ccccc3)CC2)c(Cl)cc1CNC[C@H](O)c1ccc(O)c2[nH]c(=O)ccc12 shows Total Cell Count of 400 or higher.
output: criterion not met

input: I'd appreciate it if you could say whether CC(C)(C)c1ccc(S(=O)(=O)Nc2ccc(Cl)cc2C(=O)c2cc[n+]([O-])cc2)cc1 has Total Cell Count at least equal to 400.
output: criterion met

input: Dear colleague, could you confirm whether CC[C@H]1OC(=O)[C@H](C)[C@@H](O[C@H]2C[C@@](C)(OC)[C@@H](O)[C@H](C)O2)[C@H](C)[C@@H](O[C@@H]2O[C@H](C)C[C@H](N(C)C)[C@H]2O)[C@@]2(C)CC(C)=C(O2)[C@H](C)[C@@H](O)[C@]1(C)O has Total Cell Count at or above 400?
output: criterion not met

input: Tell me whether Total Cell Count is at least 400 here: Cc1ccccc1C(=O)Nc1ccc(C(=O)N2CCCC(N(C)C)c3ccccc32)cc1.Cl (centres undefined)
output: criterion met

input: Hello, I need to know if O=C(O)c1cc2ccccc2c(Cc2c(O)c(C(=O)O)cc3ccccc23)c1O has measured Total Cell Count not below 400. Thanks!
output: criterion met

input: Item CN1CCN(c2nc3cc(C(F)(F)F)ccc3n3cccc23)CC1.O=C(O)/C=C\C(=O)O.O=C(O)/C=C\C(=O)O with Total Cell Count of 400 or above?
output: criterion met

input: Hello, I need to know if Cc1ccc(-c2ccc(F)cc2COc2ccc(CCC(=O)O)cc2)cc1 has measured Total Cell Count not below 400. Thanks!
output: criterion met

input: For this compound, is measured Total Cell Count 400 or higher? CCCN1CCC[C@@H]2Cc3n[nH]cc3C[C@H]21.Cl [QUINPIROLE HYDROCHLORIDE]
output: criterion met

input: Item Cc1nc2ccc(Oc3ccc(F)cc3)cc2c(=O)n1C[C@H]1CCCN(C(C)C)C1.Cl with Total Cell Count of 400 or above?
output: criterion not met

input: Please indicate if the recorded Total Cell Count for Cc1ccc(C(C)(O)c2nc3ccccc3s2)c(C)c1 (centres undefined) meets or exceeds 400.
output: criterion met

input: Say whether CCCn1c(=O)c2[nH]c(C3CCCC3)nc2n(CCC)c1=O shows Total Cell Count of 400 or more.
output: criterion not met

input: Does the reported Total Cell Count for Cc1ccc(F)cc1C(=O)Nc1ccc(C(=O)N2Cc3cccn3Cc3ccccc32)c(Cl)c1 fall at or above the 400 mark?
output: criterion not met

input: Record CNC[C@H](O)c1ccc(O)c(O)c1 [EPINEPHRINE] ; criterion: Total Cell Count no lower than 400. Met?
output: criterion not met

input: I'd appreciate it if you could say whether C[C@H](NC(=O)c1c(C(F)F)nn(C)c1Oc1cccc(C(F)(F)F)c1)c1ccc(C(=O)O)cc1 has Total Cell Count at least equal to 400.
output: criterion met

input: Form field: Total Cell Count at least 400? Entry: N[C@@]1(C(=O)O)CO[C@H]2[C@H](C(=O)O)[C@H]21
output: criterion not met

input: Can O=C(O)Cc1ccccc1Nc1c(Cl)cccc1Cl be said to have Total Cell Count at or above 400?
output: criterion not met

input: Would you say Oc1c(CN2CCN(c3ccccn3)CC2)cc(Cl)c2cccnc12 shows Total Cell Count at minimum 400?
output: criterion not met

input: Assess whether reported Total Cell Count for CSc1ccccc1N1CCN(CCCCCC(=O)NC2CCCc3ccccc32)CC1.Cl (centres undefined) sits at 400 or higher.
output: criterion not met

input: Is reported Total Cell Count greater than or equal to 400 here: COc1ccc2c(c1)C(C(=O)N(Cc1ccc(N(C)C)cc1)c1ccc(C(C)C)cc1)CCC2.Cl (centres undefined)
output: criterion not met

input: // inclusive: Total Cell Count at least 400? input: O=C1COc2nccc(-c3ccccc3F)c2CN1Cc1cc(C(F)(F)F)cc(C(F)(F)F)c1
output: criterion met

input: Say whether COc1c(C)cc(NC(=O)c2nn(Cc3ccc(F)cc3)c3c2CN(C(=O)c2ccc[nH]2)C[C@]3(C)C(N)=O)cc1C shows Total Cell Count of 400 or more.
output: criterion not met

input: Is Total Cell Count for CN1CCN2c3ncccc3Cc3ccccc3C2C1 (centres undefined) at or above 400?
output: criterion met

input: // inclusive: Total Cell Count at least 400? input: N#Cc1c(N)nc(SCc2csc(-c3ccc(Cl)cc3)n2)c(C#N)c1-c1ccc(OCCO)cc1
output: criterion not met
